Provenance of the data: patent US8008456B2

Assay: pH stability tests
Type: physicochemical
Settings: pH 4.0, 1 day
readout.kind: pH stability

Problem: Could you share which pH stability value was measured for COCCOC(=O)NCCO/N=C(\C)C(=O)c1ccccc1 ?
Result: <1%

Problem: // lookup pH stability for COCCOCNCCO/N=C(\C)CC(=O)c1ccccc1 [drawing 135]
Result: <1%

Problem: Need pH stability, item COCCOC(=O)NCCO/N=C(\C)C(=O)Nc1ccccc1 [drawing 138]
Result: <1%

Problem: Reported pH stability, compound COCCOC(=O)NCCO/N=C(\C)C(=O)Nc1ccccc1 [drawing 134] : ____
Result: <1%

Problem: What does the record list as pH stability for COCCOC(=O)NCCO/N=C(\C)CNC(=O)c1ccccc1 ?
Result: 7%

Problem: Look up pH stability: COCCOC(=O)NCCO/N=C1\C(=O)Nc2ccccc21
Result: <1%

Further cases:
Problem: Form field: reported pH stability of COCCOCNCCO/N=C(\C)CC(=O)c1ccccc1 [drawing 139]
Result: <1%

Problem: Quick one: pH stability of COCCOC(=O)NCCO/N=C(\C)COc1ccccc1 ?
Result: 5%
